# Target desc: T1, recombinant human IL-7Rα-His6-Fc (human, UniProt P16871 21-239)
# T1 construct: also called hIL-7R; not shown: His6 tag; Fc (captured by anti-human IgG Fc)
# T1 chain: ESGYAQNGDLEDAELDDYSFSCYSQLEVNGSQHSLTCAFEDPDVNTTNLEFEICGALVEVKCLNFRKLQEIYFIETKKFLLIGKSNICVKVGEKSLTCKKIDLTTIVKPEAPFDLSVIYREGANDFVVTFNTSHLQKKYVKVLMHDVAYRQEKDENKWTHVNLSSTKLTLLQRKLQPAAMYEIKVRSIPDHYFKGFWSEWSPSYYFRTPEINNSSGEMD
# Assay overview: IL-7/IL-7Rα-His6-Fc ELISA; inhibition of IL-7 binding to IL-7R
Can you tell me pEC50 for the items I'm about to list?
As a rule, pEC50 stands for the negative log10 of the concentration, concentration in M.

Quick check: pEC50 of ID-A33U (VHH, V7R-2E9 with E44G, S88A) VHH: EVQLVESGGGLVQAGGSLRLSCESSISTFSSDAMGWFRQAPGKGREFLAAIGWSGAVTHYSDSVQGRFTISRDNAKNTVYLQMNSLKAEDTGRYYCAEDYDTDVWQYWGQGTQVTVSS ?
9.37

Quick check: pEC50 of ID-A36U (VHH, V7R-2E9 with K87R, S88A) VHH: EVQLVESGGGLVQAGGSLRLSCESSISTFSSDAMGWFRQAPGKEREFLAAIGWSGAVTHYSDSVQGRFTISRDNAKNTVYLQMNSLRAEDTGRYYCAEDYDTDVWQYWGQGTQVTVSS ?
9.10

Quick check: pEC50 of ID-A39U (VHH, V7R-2E9 with E44G, K87R, S88A) VHH: EVQLVESGGGLVQAGGSLRLSCESSISTFSSDAMGWFRQAPGKGREFLAAIGWSGAVTHYSDSVQGRFTISRDNAKNTVYLQMNSLRAEDTGRYYCAEDYDTDVWQYWGQGTQVTVSS ?
9.39

Quick check: pEC50 of ID-A37U (VHH, V7R-2E9 with E44G, Q65K, K87R) VHH: EVQLVESGGGLVQAGGSLRLSCESSISTFSSDAMGWFRQAPGKGREFLAAIGWSGAVTHYSDSVKGRFTISRDNAKNTVYLQMNSLRSEDTGRYYCAEDYDTDVWQYWGQGTQVTVSS ?
9.07

Source listed as patent US20220363769A1.
